These data points were gathered from the NIST ThermoML archive (doi:10.1016/j.jct.2008.08.007).

Reported molar heat capacity at constant pressure is given for each of the following compounds.
experiment: molar heat capacity at constant pressure; settings: 328.15 K; 101.33 kPa; Crystal; Small sample (50 mg) DSC
Give just the number in J/K/mol; leave the unit off.

[[record]]
compound = "OC[C@H]1OC(O)C[C@@H](O)[C@@H]1O (stereo partly drawn)"
experimental_result = 214.7


Reported molar heat capacity at constant pressure of OC[C@H]1O[C@@H]2O[C@H]3[C@H](O)[C@@H](O)[C@@H](O[C@H]4[C@H](O)[C@@H](O)[C@@H](O[C@H]5[C@H](O)[C@@H](O)[C@@H](O[C@H]6[C@H](O)[C@@H](O)[C@@H](O[C@H]7[C@H](O)[C@@H](O)[C@@H](O[C@H]1[C@H](O)[C@H]2O)O[C@@H]7CO)O[C@@H]6CO)O[C@@H]5CO)O[C@@H]4CO)O[C@@H]3CO : 1282.6

Reported molar heat capacity at constant pressure of OC[C@H]1O[C@@H]2O[C@H]3[C@H](O)[C@@H](O)[C@@H](O[C@H]4[C@H](O)[C@@H](O)[C@@H](O[C@H]5[C@H](O)[C@@H](O)[C@@H](O[C@H]6[C@H](O)[C@@H](O)[C@@H](O[C@H]7[C@H](O)[C@@H](O)[C@@H](O[C@H]8[C@H](O)[C@@H](O)[C@@H](O[C@H]1[C@H](O)[C@H]2O)O[C@@H]8CO)O[C@@H]7CO)O[C@@H]6CO)O[C@@H]5CO)O[C@@H]4CO)O[C@@H]3CO : 1495.7

###

assay: molar heat capacity at constant pressure; conditions: 333.15 K; 101.33 kPa; Crystal; Small sample (50 mg) DSC
value_kind: molar heat capacity at constant pressure (J/K/mol)
Give just the number in J/K/mol; leave the unit off.

Reported molar heat capacity at constant pressure of OC[C@H]1O[C@@](CO)(O[C@H]2O[C@H](CO)[C@@H](O)[C@H](O)[C@H]2O)[C@@H](O)[C@@H]1O [D-sucrose] : 482.5

Reported molar heat capacity at constant pressure of OC[C@H]1O[C@@H]2O[C@H]3[C@H](O)[C@@H](O)[C@@H](O[C@H]4[C@H](O)[C@@H](O)[C@@H](O[C@H]5[C@H](O)[C@@H](O)[C@@H](O[C@H]6[C@H](O)[C@@H](O)[C@@H](O[C@H]7[C@H](O)[C@@H](O)[C@@H](O[C@H]1[C@H](O)[C@H]2O)O[C@@H]7CO)O[C@@H]6CO)O[C@@H]5CO)O[C@@H]4CO)O[C@@H]3CO [α-cyclodextrin] : 1305.3

Reported molar heat capacity at constant pressure of O.OC[C@H]1O[C@@H](O[C@H]2[C@H](O)[C@@H](O)[C@@H](O)O[C@@H]2CO)[C@H](O)[C@@H](O)[C@H]1O [α-D-lactose hydrate] : 468.3

Reported molar heat capacity at constant pressure of OC[C@H]1O[C@@H]2O[C@H]3[C@H](O)[C@@H](O)[C@@H](O[C@H]4[C@H](O)[C@@H](O)[C@@H](O[C@H]5[C@H](O)[C@@H](O)[C@@H](O[C@H]6[C@H](O)[C@@H](O)[C@@H](O[C@H]7[C@H](O)[C@@H](O)[C@@H](O[C@H]8[C@H](O)[C@@H](O)[C@@H](O[C@H]1[C@H](O)[C@H]2O)O[C@@H]8CO)O[C@@H]7CO)O[C@@H]6CO)O[C@@H]5CO)O[C@@H]4CO)O[C@@H]3CO [β-cyclodextrin] : 1522.1

Reported molar heat capacity at constant pressure of OC[C@H]1O[C@H](O)[C@H](O)[C@@H](O)[C@@H]1O [α-D-glucose] : 246.2

Reported molar heat capacity at constant pressure of CC(=O)N[C@@H](C=O)[C@@H](O)[C@H](O)[C@H](O)CO [N-acetyl-D-glucosamine] : 299.4

Reported molar heat capacity at constant pressure of OC[C@H]1OC(O)C[C@@H](O)[C@@H]1O (stereo partly drawn) [2-deoxy-D-glucose] : 218.4

Reported molar heat capacity at constant pressure of O=C[C@H](O)[C@@H](O)[C@@H](O)[C@H](O)CO [(+)-galactose] : 242.8

Reported molar heat capacity at constant pressure of O=C[C@@H](O)[C@@H](O)[C@H](O)[C@H](O)CO [D-mannose] : 242.1

Reported molar heat capacity at constant pressure of CO[C@H]1O[C@H](CO)[C@@H](O)[C@H](O)[C@H]1O [methyl-α-D-glucopyranoside] : 283.6

Reported molar heat capacity at constant pressure of O=C(CO)[C@@H](O)[C@H](O)[C@H](O)CO [D-fructose] : 255.1

Reported molar heat capacity at constant pressure of O=C[C@H](O)[C@@H](O)[C@H](O[C@H]1O[C@H](CO)[C@@H](O[C@H]2O[C@H](CO)[C@@H](O)[C@H](O)[C@H]2O)[C@H](O)[C@H]1O)[C@H](O)CO [maltotriose] : 718.6

Reported molar heat capacity at constant pressure of OC[C@H]1O[C@@H](O[C@H]2[C@H](O)[C@@H](O)[C@H](O)O[C@@H]2CO)[C@H](O)[C@@H](O)[C@@H]1O [D-cellobiose] : 473.1

###

test: molar heat capacity at constant pressure; settings: 343.15 K; 101.33 kPa; Crystal; Small sample (50 mg) DSC
Reported molar heat capacity at constant pressure is given for each of the following compounds.
Give just the number in J/K/mol; leave the unit off.

[[record]]
compound_smiles = "OC[C@H]1O[C@@H]2O[C@H]3[C@H](O)[C@@H](O)[C@@H](O[C@H]4[C@H](O)[C@@H](O)[C@@H](O[C@H]5[C@H](O)[C@@H](O)[C@@H](O[C@H]6[C@H](O)[C@@H](O)[C@@H](O[C@H]7[C@H](O)[C@@H](O)[C@@H](O[C@H]1[C@H](O)[C@H]2O)O[C@@H]7CO)O[C@@H]6CO)O[C@@H]5CO)O[C@@H]4CO)O[C@@H]3CO"
unit_spec = "J/K/mol"
experimental_result = 1364.6


For the next question, use this compound.
Reported molar heat capacity at constant pressure of O=C[C@@H](O)[C@@H](O)[C@H](O)[C@H](O)CO : 249

###

assay: molar heat capacity at constant pressure; settings: 303.15 K; 101.33 kPa; Crystal; Small sample (50 mg) DSC
± gives the expanded uncertainty stated by the source.
Reported molar heat capacity at constant pressure is given for each of the following molecules.

[[record]]
compound_smiles = "O=CC[C@H](O)[C@H](O)CO"
experimental_result = "163.6 ± 3.9 J/K/mol"


Reported molar heat capacity at constant pressure of OC[C@H]1O[C@H](O)[C@H](O)[C@@H](O)[C@@H]1O : 222.8 ± 5.3 J/K/mol

Reported molar heat capacity at constant pressure of OC[C@H]1O[C@@H](O[C@H]2[C@H](O)[C@@H](O)[C@H](O)O[C@@H]2CO)[C@H](O)[C@@H](O)[C@@H]1O : 445 ± 8.3 J/K/mol

Reported molar heat capacity at constant pressure of CC(=O)N[C@@H](C=O)[C@@H](O)[C@H](O)[C@H](O)CO : 278 ± 6.7 J/K/mol

Reported molar heat capacity at constant pressure of O=C[C@H](O)[C@H](O)[C@H](O)CO : 188.8 ± 3.9 J/K/mol

Reported molar heat capacity at constant pressure of O=C[C@H](O)[C@@H](O)[C@H](O[C@H]1O[C@H](CO)[C@@H](O[C@H]2O[C@H](CO)[C@@H](O)[C@H](O)[C@H]2O)[C@H](O)[C@H]1O)[C@H](O)CO : 662.7 ± 11 J/K/mol

Reported molar heat capacity at constant pressure of OC[C@H]1O[C@@](CO)(O[C@H]2O[C@H](CO)[C@@H](O)[C@H](O)[C@H]2O)[C@@H](O)[C@@H]1O : 429.4 ± 7.7 J/K/mol

###

assay: molar heat capacity at constant pressure; settings: 293.15 K; 101.33 kPa; Crystal; Small sample (50 mg) DSC
value_kind: molar heat capacity at constant pressure (J/K/mol)
Give just the number in J/K/mol; leave the unit off.

Some entries whose results are on file:
[[record]]
molecule = "OC[C@H]1O[C@@H]2O[C@H]3[C@H](O)[C@@H](O)[C@@H](O[C@H]4[C@H](O)[C@@H](O)[C@@H](O[C@H]5[C@H](O)[C@@H](O)[C@@H](O[C@H]6[C@H](O)[C@@H](O)[C@@H](O[C@H]7[C@H](O)[C@@H](O)[C@@H](O[C@H]1[C@H](O)[C@H]2O)O[C@@H]7CO)O[C@@H]6CO)O[C@@H]5CO)O[C@@H]4CO)O[C@@H]3CO"
experimental_result = 1113.2

[[record]]
molecule = "OC[C@H]1OC(O)C[C@@H](O)[C@@H]1O (stereo partly drawn)"
experimental_result = 195.8

[[record]]
molecule = "OC[C@H]1O[C@H](O)[C@H](O)[C@@H](O)[C@@H]1O"
experimental_result = 214.8

[[record]]
molecule = "OC[C@H]1O[C@@H]2O[C@H]3[C@H](O)[C@@H](O)[C@@H](O[C@H]4[C@H](O)[C@@H](O)[C@@H](O[C@H]5[C@H](O)[C@@H](O)[C@@H](O[C@H]6[C@H](O)[C@@H](O)[C@@H](O[C@H]7[C@H](O)[C@@H](O)[C@@H](O[C@H]8[C@H](O)[C@@H](O)[C@@H](O[C@H]1[C@H](O)[C@H]2O)O[C@@H]8CO)O[C@@H]7CO)O[C@@H]6CO)O[C@@H]5CO)O[C@@H]4CO)O[C@@H]3CO"
experimental_result = 1298.3

[[record]]
molecule = "O=CC[C@H](O)[C@H](O)CO"
experimental_result = 167.6


Reported molar heat capacity at constant pressure of O=C[C@H](O)[C@@H](O)[C@H](O[C@H]1O[C@H](CO)[C@@H](O[C@H]2O[C@H](CO)[C@@H](O)[C@H](O)[C@H]2O)[C@H](O)[C@H]1O)[C@H](O)CO : 654

Reported molar heat capacity at constant pressure of O=C(CO)[C@@H](O)[C@H](O)[C@H](O)CO : 223.6

Reported molar heat capacity at constant pressure of O.OC[C@H]1O[C@@H](O[C@H]2[C@H](O)[C@@H](O)[C@@H](O)O[C@@H]2CO)[C@H](O)[C@@H](O)[C@H]1O [α-D-lactose hydrate] : 426.9
